system: Human immunodeficiency virus type 1 protease (Human immunodeficiency virus 1), Q72874 [Q7K,L10F,I13V,I15V,D30V,V32I,L33F,E35D,M36I,S37N,I47V,I54L,Q58E,I62V,L63P,A71V,I84V,N88D,L89T,L90M]; assay: Binding affinity to HIV1 protease Q7K, L10F, I13V, I15V, D30V, V32I, L33F, E35D, M36I, S37N, I47V, I54L, Q58E, I62V, L63P, A71V, I84V, N88D, L89T, L90M mutant expressed in Escherichia coli BL21 (DE3) assessed as association constant by isothermal titration calorimetric analysis
Give K for every item shown.
One number for each entry, in ×10⁶ /M.

Some solved entries appear below for comparison.
**Q:** Which measured K value corresponds to COc1ccc(S(=O)(=O)N(CC(C)C)C[C@@H](O)[C@H](Cc2ccccc2)NC(=O)O[C@H]2CO[C@H]3O[C@@H]4OCC[C@@H]4[C@H]32)cc1 ?
**A:** 25.3

**Q:** What does the record list as K for CC(C)CN(C[C@@H](O)[C@H](Cc1ccccc1)NC(=O)O[C@H]1CO[C@H]2OCC[C@H]21)S(=O)(=O)c1ccc(N)cc1 ?
**A:** 24.5

**Q:** I have this molecule here, CC(C)CN(C[C@@H](O)[C@H](Cc1ccccc1)NC(=O)O[C@H]1CCOC1)S(=O)(=O)c1ccc(N)cc1 , and I need its recorded K.
**A:** 5.61

More entries:
**Q:** Please report the recorded K for COc1ccc(S(=O)(=O)N(C[C@H]2CCC(=O)N2)C[C@@H](O)[C@H](Cc2ccccc2)NC(=O)O[C@@H]2C[C@@H]3CCO[C@@H]3C2)cc1 .
**A:** 1.04

---

Hi there, I'd appreciate the recorded K for every entry that follows.
tested on: Human immunodeficiency virus type 1 protease (Human immunodeficiency virus 1), Q72874 [Q7K,L10F,I13V,I15V,D30V,V32I,L33F,E35D,M36I,S37N,I47V,I54L,Q58E,I62V,L63P,A71V,I84V,N88D,L89T,L90M]; test: Binding affinity to HIV1 protease Q7K, L10F, I13V, I15V, D30V, V32I, L33F, E35D, M36I, S37N, I47V, I54L, Q58E, I62V, L63P, A71V, I84V, N88D, L89T, L90M mutant expressed in Escherichia coli BL21 (DE3) assessed as dissociation constant by isothermal titration calorimetric analysis
One number for each entry, in nM.

# annotated cases, reported K shown
**Q:** Query (compound): CC(C)CN(C[C@@H](O)[C@H](Cc1ccccc1)NC(=O)O[C@H]1CCOC1)S(=O)(=O)c1ccc(N)cc1 ; field requested: K
**A:** 178

**Q:** Consider the compound shown here: CC(C)CN(C[C@@H](O)[C@H](Cc1ccccc1)NC(=O)O[C@H]1CO[C@H]2OCC[C@H]21)S(=O)(=O)c1ccc(N)cc1 What is its recorded K?
**A:** 41

**Q:** # input compound: COc1ccc(S(=O)(=O)N(CC(C)C)C[C@@H](O)[C@H](Cc2ccccc2)NC(=O)O[C@H]2CO[C@H]3O[C@@H]4OCC[C@@H]4[C@H]32)cc1 ; wanted: its K
**A:** 39.5

Now for the compound whose K we want.
**Q:** Would you kindly share the measured K for COc1ccc(S(=O)(=O)N(C[C@H]2CCC(=O)N2)C[C@@H](O)[C@H](Cc2ccccc2)NC(=O)O[C@@H]2C[C@@H]3CCO[C@@H]3C2)cc1 ?
**A:** 960
